# tgt: ERα (Homo sapiens, UniProt P03372)
# test: Degradation of ERα in MCF-7 cells (immunoblotting, 4 h)
# Type: cell-based
# applied-conditions: 1nM compound
Kindly return met if reported Degradation rate (%) of ERα in MCF-7 cells is no lower than 30%; return not met if it is lower.

compound: O=C1CCC(N2Cc3c(ccc4c3OCC43CCN(CC(=O)N4CCC5(CC4)CN(c4ccc([C@@H]6c7ccc(O)cc7CC[C@@H]6c6ccccc6)cc4)C5)CC3)C2=O)C(=O)N1 (some centres unmarked)
class-label: met
//
compound: O=C1CCC(N2Cc3c(ccc4c3OCC43CCN(CCNC(=O)C4CCC5(CC4)CCN(c4ccc([C@@H]6c7ccc(O)cc7CC[C@@H]6c6ccccc6)cc4)CC5)CC3)C2=O)C(=O)N1 (some centres unmarked)
class-label: not met
//
compound: C[C@@H]1Cc2c(ccc3[nH]ncc23)C(c2ccc(N3CCC4(CC3)CC(N3CC[C@@H](N5CCC6(CC5)COc5c6ccc6c5CN(C5CCC(=O)NC5=O)C6=O)[C@@H](F)C3)C4)cn2)N1CC(F)(F)F (some centres unmarked)
class-label: met
//
compound: O=C1CCC(N2Cc3c(ccc4c3OCC43CCN(C(=O)C4CCC5(CC4)CCN(c4ccc([C@@H]6c7ccc(O)cc7CC[C@@H]6c6ccccc6)cc4)CC5)CC3)C2=O)C(=O)N1 (some centres unmarked)
class-label: not met
//
compound: O=C1CCC(N2Cc3cc4c(cc3C2=O)OC2(CC4)CN(CC3CCC4(CC3)CCN(c3ccc([C@@H]5c6ccc(O)cc6CC[C@@H]5c5ccccc5)cc3)CC4)C2)C(=O)N1 (some centres unmarked)
class-label: not met

###

# Tested on: T-47D cells
# test: Inhibition of cell proliferation in T-47D cells (CCK-8, 6 days)
# Assay type: cell-based
# applied-conditions: 6 days of treatment, Table 3
pIC50: −log10 of the molar value.

compound: O=C1CCC(N2Cc3c(ccc4c3OCC43CCN(C(=O)C4CCC5(CC4)CCN(c4ccc([C@@H]6c7ccc(O)cc7CC[C@@H]6c6ccccc6)cc4)CC5)CC3)C2=O)C(=O)N1 (some centres unmarked)
pIC50: 8.07

compound: C[C@@H]1Cc2c([nH]c3ccccc23)[C@@H](c2c(F)cc(N3CC4(CCC(N5CCC6(CC5)COc5c6ccc6c5CN(C5CCC(=O)NC5=O)C6=O)CC4)C3)cc2F)N1CC(F)F (some centres unmarked)
pIC50: 7.77

compound: CC1(CN2CCC3(CC2)COc2c3ccc3c2CN(C2CCC(=O)NC2=O)C3=O)CCN(CC2CCN(c3ccc([C@@H]4c5ccc(O)cc5CC[C@@H]4c4ccccc4)cc3)CC2)CC1 (some centres unmarked)
pIC50: 8.07

compound: O=C1CCC(N2Cc3c(ccc4c3OCC43CCN(C4CCN(C5CC6(CCN(c7ccc([C@@H]8c9ccc(O)cc9CC[C@@H]8c8ccccc8)cc7)CC6)C5)[C@H](C(=O)NC5CCCC5)C4)CC3)C2=O)C(=O)N1 (some centres unmarked)
pIC50: 8.43

compound: O=C1CCC(N2Cc3c(ccc4c3OCC43CCN(C4CCN(C5CC6(CCN(c7ccc([C@@H]8c9ccc(O)cc9CC[C@@H]8c8ccccc8)cc7)CC6)C5)CC4F)CC3)C2=O)C(=O)N1 (some centres unmarked)
pIC50: 8.86

###

# tgt: ERα (Homo sapiens, UniProt P03372)
# Sequence (P03372 1-595): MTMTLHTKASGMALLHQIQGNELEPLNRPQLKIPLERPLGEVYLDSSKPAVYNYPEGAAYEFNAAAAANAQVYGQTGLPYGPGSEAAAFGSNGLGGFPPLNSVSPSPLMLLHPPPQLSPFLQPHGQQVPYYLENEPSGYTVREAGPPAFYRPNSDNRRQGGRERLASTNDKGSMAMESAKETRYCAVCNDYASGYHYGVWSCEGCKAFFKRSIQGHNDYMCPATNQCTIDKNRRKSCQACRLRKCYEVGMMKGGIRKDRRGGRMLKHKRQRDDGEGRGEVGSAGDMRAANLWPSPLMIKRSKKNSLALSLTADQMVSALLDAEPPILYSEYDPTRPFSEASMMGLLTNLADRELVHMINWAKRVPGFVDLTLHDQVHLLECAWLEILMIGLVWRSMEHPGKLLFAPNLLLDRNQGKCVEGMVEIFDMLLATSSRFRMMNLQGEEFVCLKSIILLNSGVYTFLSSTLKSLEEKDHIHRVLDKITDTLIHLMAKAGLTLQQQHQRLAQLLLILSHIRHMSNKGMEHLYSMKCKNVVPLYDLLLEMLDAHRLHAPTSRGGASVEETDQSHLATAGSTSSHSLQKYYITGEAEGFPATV
# test: Degradation of ERα in MCF-7 cells (immunoblotting, 4 h)
# Format: cell-based
# applied-conditions: 10nM compound
result-type: Degradation rate (%) of ERα in MCF-7 cells

compound: O=C1CCC(N2Cc3c(ccc4c3OCC43CCN(C(=O)C4CCN(CC5CCN(c6ccc([C@@H]7c8ccc(O)cc8CC[C@@H]7c7ccccc7)cc6)CC5)CC4)CC3)C2=O)C(=O)N1 (stereo partly drawn) [J8]
reported-result: 85%
//
compound: C[C@@H]1Cc2c([nH]c3ccccc23)[C@@H](c2c(F)cc(N3CCC4(CCN(C(=O)CN5CCC6(CC5)COc5c6ccc6c5CN(C5CCC(=O)NC5=O)C6=O)CC4)CC3)cc2F)N1CC(F)F (stereo partly drawn)
reported-result: 55%
//
compound: CN(CC(=O)N1CC2(CCc3cc4c(cc3O2)C(=O)N(C2CCC(=O)NC2=O)C4)C1)C1CCC2(CC1)CN(c1ccc([C@@H]3c4ccc(O)cc4CC[C@@H]3c3ccccc3)cc1)C2 (stereo partly drawn)
reported-result: 29%
//
compound: O=C1CCC(N2C(=O)c3cc4c(cc3C2=O)C2(CCN(CC3CN(c5ccc([C@@H]6c7ccc(O)cc7CC[C@@H]6c6ccccc6)cc5)C3)CC2)CO4)C(=O)N1 (stereo partly drawn)
reported-result: -14%
//
compound: C[C@H]1CN(C(=O)C2(F)CCN(c3ccc([C@@H]4c5ccc(O)cc5CC[C@@H]4c4ccccc4)cc3)CC2)CCC1N1CCC2(CC1)COc1c2ccc2c1CN(C1CCC(=O)NC1=O)C2=O (stereo partly drawn)
reported-result: 75%
//
compound: O=C1CCC(N2Cc3c(ccc4c3OCC43CCN(C4CCC(Oc5ccc([C@@H]6c7ccc(O)cc7CC[C@@H]6c6ccccc6)cc5)CC4)CC3)C2=O)C(=O)N1 (stereo partly drawn)
reported-result: 28%
//
compound: O=C1CCC(N2Cc3c(ccc4c3OCC43CCN(C4CCN(C(=O)C5CCN(c6ccc(C7c8ccc(O)cc8CCC7c7ccccc7)cc6)CC5)CC4F)CC3)C2=O)C(=O)N1 (stereo not drawn)
reported-result: 57%
//
compound: CC(C(=O)N1CCC2(CC1)COc1c2ccc2c1CN(C1CCC(=O)NC1=O)C2=O)N1CCC2(CCN(c3ccc([C@@H]4c5ccc(O)cc5CC[C@@H]4c4ccccc4)cc3)CC2)C1 (stereo partly drawn)
reported-result: 54%
//
compound: O=C1CCC(N2Cc3cc4c(cc3C2=O)CCC2(CN(C(=O)CN3CCC5(CCN(c6ccc([C@@H]7c8ccc(O)cc8CC[C@@H]7c7ccccc7)cc6)CC5)C3)C2)O4)C(=O)N1 (stereo partly drawn)
reported-result: 12%
//
compound: CCNC(=O)[C@H]1CC(N2CCC3(CC2)COc2c3ccc3c2CN(C2CCC(=O)NC2=O)C3=O)CCN1C1CC2(CCN(c3ccc([C@@H]4c5ccc(O)cc5CC[C@@H]4c4ccccc4)cc3)CC2)C1 (stereo partly drawn)
reported-result: 88%
//
compound: O=C1CCC(N2Cc3c(ccc4c3OCC43CCN(C4CCN(S(=O)(=O)C5CCN(c6ccc([C@@H]7c8ccc(O)cc8CC[C@@H]7c7ccccc7)cc6)CC5)CC4)CC3)C2=O)C(=O)N1 (stereo partly drawn)
reported-result: 51%
//
compound: CN(C(=O)CN1CCC2(CC1)COc1cc3c(cc12)CN(C1CCC(=O)NC1=O)C3=O)C1CCC2(CC1)CN(c1ccc([C@@H]3c4ccc(O)cc4CC[C@@H]3c3ccccc3)cc1)C2 (stereo partly drawn)
reported-result: 21%
//
compound: O=C1CCC(N2Cc3ccc4c(c3C2=O)OCC2(CCN(C3CC5(CCN(c6ccc([C@@H]7c8ccc(O)cc8CC[C@@H]7c7ccccc7)cc6)CC5)C3)CC2)C4)C(=O)N1 (stereo partly drawn)
reported-result: 29%
//
compound: O=C1CCC(N2Cc3c(ccc4c3OCC43CCN(CC4CCN(C5CCN(c6ccc([C@@H]7c8ccc(O)cc8CC[C@@H]7c7ccccc7)cc6)CC5)CC4)CC3)C2=O)C(=O)N1 (stereo partly drawn)
reported-result: 62%
//
compound: O=C1CCC(N2Cc3c(ccc4c3OCC43CCN(C(=O)C4CCN(c5ccc([C@@H]6c7ccc(O)cc7CC[C@@H]6c6ccccc6)cc5)CC4)CC3)C2=O)C(=O)N1 (stereo partly drawn)
reported-result: -33%
//
compound: O=C1CCC(N2C(=O)c3ccc4c(c3C2=O)OC2(CC4)CCN(C3CCC4(CC3)CN(c3ccc([C@@H]5c6ccc(O)cc6CC[C@@H]5c5ccccc5)cc3)C4)CC2)C(=O)N1 (stereo partly drawn)
reported-result: 27%
//
compound: O=C1CCC(N2Cc3c(ccc4c3OCC43CCN(CC4CCN(C(=O)C5CCN(c6ccc([C@@H]7c8ccc(O)cc8CC[C@@H]7c7ccccc7)cc6)CC5)CC4)CC3)C2=O)C(=O)N1 (stereo partly drawn)
reported-result: 73%
//
compound: O=C1CCC(N2Cc3cc4c(cc3C2=O)CCC2(CN(C3CCC(N5CCN(c6ccc([C@@H]7c8ccc(O)cc8CC[C@@H]7c7ccccc7)cc6)CC5)CC3)C2)O4)C(=O)N1 (stereo partly drawn)
reported-result: -18%
//
compound: O=C1CCC(N2Cc3c(ccc4c3OCC43CCN(C[C@H]4CC[C@H](C(=O)N5CCN(c6ccc([C@@H]7c8ccc(O)cc8CC[C@@H]7c7ccccc7)cc6)CC5)CC4)CC3)C2=O)C(=O)N1 (stereo partly drawn)
reported-result: 77%
//
compound: C[C@@H]1CN(C(=O)C2(F)CCN(c3ccc([C@@H]4c5ccc(O)cc5CC[C@@H]4c4ccccc4)cc3)CC2)CCC1N1CCC2(CC1)COc1c2ccc2c1CN(C1CCC(=O)NC1=O)C2=O (stereo partly drawn)
reported-result: 66%
//
compound: O=C1CCC(N2C(=O)c3cc4c(cc3C2=O)C2(CCN(CC3CCN(c5ccc(C6c7ccc(O)cc7CCC6c6ccccc6)cc5)CC3)CC2)CO4)C(=O)N1 (stereo not drawn)
reported-result: -42%
